- assayDetails: basal RPMI8226 mitochondrial membrane potential changes, profiling panel, cell-based, JC-1 fluorescence, 24 h, 100 nL compound (AID 1169); further: test concentration not given here
- measurementConditions: RPMI8226 myeloma, JC-1 mitochondrial potential fluorescence, higher = more signal
z-score vs -0.9: at or above is MET, below is NOT MET.

{"smilesRepresentation": "Cc1ccc(S[C@]2(C(=O)NCc3ccccc3)CC(=O)N(Cc3ccccc3C(F)(F)F)[C@@H]2c2ccc(CO)cc2I)cc1", "label": "MET"}
{"smilesRepresentation": "COc1ccc([Si](C)(C)[C@H]2[C@H](CC(=O)N3CCC[C@H]3CO)O[C@@]3(C(=O)N(C)c4ccccc43)[C@@H]2C)cc1", "label": "MET"}
{"smilesRepresentation": "CCCCC(=C=CC[C@@H](O)c1ccccc1OCCO)C[C@@H](O)c1ccccn1", "label": "MET"}
{"smilesRepresentation": "[N-]=[N+]=NCc1ccccc1C[C@@]1(C(N)=O)N=C(c2ccc(OCCCO)cc2)O[C@@H]1c1ccccc1N=[N+]=[N-]", "label": "NOT MET"}
{"smilesRepresentation": "COCCOC(=O)N1C(=O)[C@@]2(c3cc(C#CCCO)ccc31)[C@H](C(=O)N1CCN(c3ncccn3)CC1)[C@H]1C(=O)O[C@H](c3ccccc3)[C@H](c3ccccc3)N1[C@@H]2c1ccc(OCCO)cc1", "label": "MET"}
{"smilesRepresentation": "COC(=O)C(CC#Cc1ccc2c(c1)[C@]1(C(=O)N2)[C@H](C(=O)NC[C@H](O)c2ccccc2)[C@H]2C(=O)O[C@H](c3ccccc3)[C@H](c3ccccc3)N2[C@@H]1c1ccc(O)cc1)C(=O)OC", "label": "NOT MET"}
{"smilesRepresentation": "O=C1O[C@H](c2ccccc2)[C@H](c2ccccc2)N2[C@H]1[C@@H](C(=O)Nc1nc3ccccc3s1)[C@]1(C(=O)Nc3ccccc31)[C@H]2c1ccccc1OCCO", "label": "NOT MET"}

###

- assayDetails: A549 cell viability effects, profiling panel, calcein-AM fluorescence, 48 h, basal (AID 1162); further: test concentration not given here
- measurementConditions: higher = more signal
z-score vs -0.3: at or above is Met, below is Not met.

{"compound": "COC(=O)c1c2oc(c1C(=O)OC)C(=O)N[C@H](Cc1ccccc1)Cn1cc(nn1)C1(CCCCC1)NC(=O)N[C@H](CO)CC2", "label": "Met"}
{"compound": "COc1cc(Cc2cc3c(c(CCc4ccccc4)n2)[Si](C(C)C)(C(C)C)O[C@H]3c2ccccc2)cc(OC)c1OC", "label": "Not met"}
{"compound": "CC1CC/C=C\\[C@H]2OC34C=CCN(C(C)C)C(=O)[C@H]3N(C(C)CO)C(=O)[C@@H]4C2C(=O)O1 (some centres undefined)", "label": "Not met"}
{"compound": "COCCOC(=O)N1C(=O)[C@@]2(c3cc(C#CCNC(N)=O)ccc31)[C@H](C(=O)N1CCN(c3ncccn3)CC1)[C@H]1C(=O)O[C@H](c3ccccc3)[C@H](c3ccccc3)N1[C@@H]2c1ccc(O)cc1", "label": "Met"}
{"compound": "COC(=O)C(CC#Cc1ccc2c(c1)[C@]1(C(=O)N2)[C@H](c2ccc(OCCO)cc2)N2[C@H](c3ccccc3)[C@H](c3ccccc3)OC(=O)[C@H]2[C@@H]1C(N)=O)C(=O)OC", "label": "Not met"}
{"compound": "COc1ccc([Si](C)(C)[C@H]2[C@H](CC(=O)N3CCC[C@H]3CO)O[C@@]3(C(=O)N(Cc4cccc(N5CCCCC5=O)c4)c4ccccc43)[C@@H]2C)cc1", "label": "Met"}
{"compound": "CN(C)CCCC[C@@H]1NC(=O)[C@H]2C[C@@H](C(=O)NCCCCCCNC(=O)CS)[C@@H](c3cccc(OCCO)c3)N2C1=O", "label": "Met"}
{"compound": "COc1ccc([Si](C)(C)[C@@H]2[C@@H](CC(=O)N3Cc4ccccc4C[C@H]3CO)O[C@]3(C(=O)N(Cc4ccc(I)cc4)c4ccccc43)[C@H]2C)cc1", "label": "Not met"}
{"compound": "C=CC[C@H](O)c1ccc(O)c2ccccc12", "label": "Met"}
{"compound": "C=CCNC(=O)[C@H]1[C@@H]2C(=O)O[C@@H](c3ccccc3)[C@@H](c3ccccc3)N2[C@@H](c2ccc(OCCO)cc2)[C@]12C(=O)N(C(=O)OCCOC)c1ccc(C#CCNC(N)=O)cc12", "label": "Met"}
{"compound": "CCCCN1CC=CC23O[C@@H]4/C=C\\CCC(C)OC(=O)C4[C@H]2C(=O)N(CCO)[C@@H]3C1=O (some centres undefined)", "label": "Met"}
{"compound": "CC(=O)NCCCC[C@@H]1NC(=O)[C@H]2C[C@@H](C(=O)NCCCCCN)[C@@H](c3ccc(O)cc3)N2C1=O", "label": "Not met"}
{"compound": "Cc1ccc(S[C@]2(C(=O)NCCN3CCOCC3)CC(=O)N(C(C)C)[C@@H]2c2ccc(CO)cc2I)cc1", "label": "Met"}
{"compound": "CCCCN1CC=CC23O[C@@H]4/C=C\\CCCOC(=O)C4[C@H]2C(=O)N(CCCCCCO)[C@@H]3C1=O (some centres undefined)", "label": "Met"}

###

- Tested on: Plasmodium falciparum Sir2 (PF13_0152, Sir2A)
- assayDetails: pfSir2 binders on small-molecule microarrays, primary screen, biochemical, small-molecule microarray, 635 nm fluorescence (AID 1098);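 further: score merges spot fluorescence intensity with its signal-to-noise ratio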
- measurementConditions: small-molecule microarray binding, fluorescence 635 nm; higher = more signal
composite z-score vs 0.5: at or above is fulfilled, below is not fulfilled.

{"molecule": "COC(=O)C1=CC(CCCO)=CC(c2ccc(CN3CCCC3)cc2)N(C)C=C1C(=O)OC (configuration not stated)", "label": "fulfilled"}
{"molecule": "COC(=O)[C@@]1(Cc2ccc(F)cc2)[C@@H]2C(=CC(=O)[C@H]2CC(=O)C(=O)N2CCCC2)CN1C(=O)c1ccccc1", "label": "fulfilled"}
{"molecule": "COCCCNC(=O)[C@@]1(CCC(=O)OC(C)(C)C)N=C(c2ccc(OCCCO)cc2)O[C@H]1c1ccccc1", "label": "fulfilled"}
{"molecule": "CC1CC/C=C\\[C@H]2OC34C=CCN(C(C)C)C(=O)[C@H]3N(C(C)CO)C(=O)[C@@H]4C2C(=O)O1 (some centres not stated)", "label": "not fulfilled"}
{"molecule": "COCCOC(=O)N1C(=O)[C@@]2(c3cc(C#CCNC(N)=O)ccc31)[C@H](C(N)=O)[C@H]1C(=O)O[C@H](c3ccccc3)[C@H](c3ccccc3)N1[C@@H]2c1ccc(O)cc1", "label": "fulfilled"}
{"molecule": "O=C(NCCN1CCOCC1)[C@@H]1c2ccccc2C(=O)N(CC23CC4CC(CC(C4)C2)C3)[C@H]1c1ccc(CO)cc1", "label": "fulfilled"}
{"molecule": "COc1ccc([Si](C)(C)[C@H]2[C@H](CC(=O)N3CCC[C@H]3CO)O[C@@]3(C(=O)N(C)c4ccccc43)[C@@H]2C)cc1", "label": "not fulfilled"}
{"molecule": "CC(C)(C)OC(=O)CC[C@@]1(C(N)=O)N=C(c2ccc(OCCCO)cc2)O[C@@H]1c1ccccc1CN=[N+]=[N-]", "label": "not fulfilled"}
{"molecule": "C=CCC(OC(C)=O)[C@@H]1[C@@H](N(Cc2cccc3ccccc23)C(=O)c2ccc(C)cc2)c2cc(OCCCO)ccc2N1C(=O)Cc1ccc2ccccc2c1 (some centres not stated)", "label": "not fulfilled"}
{"molecule": "COc1cccc(C)c1NC(=O)O[C@H]1[C@H](OC(=O)Nc2ccccc2)[C@@H](OC(=O)Nc2ccccc2)[C@@H](OC)O[C@@H]1CO", "label": "fulfilled"}
{"molecule": "COc1ccc(C(O)C2C=CC3C(=O)N(c4ccccc4)C(=O)C3N2Nc2ccccc2F)c2ccccc12 (configuration not stated)", "label": "fulfilled"}
{"molecule": "COC(=O)[C@@]1(Cc2ccccc2)[C@H]2c3cc(C(=O)N(C)C)n(Cc4nc5ccccc5[nH]4)c3C[C@H]2CN1C(=O)c1ccccc1", "label": "fulfilled"}
{"molecule": "O=C/C=C/c1ccc(-c2ccccc2)cc1", "label": "not fulfilled"}
{"molecule": "C=C(C(=O)CC[C@@H](OC(=O)c1ccccc1-c1ccccc1C(=O)O)c1ccc(OCCO)cc1)C(C)C", "label": "fulfilled"}
{"molecule": "CC(C)[Si]1(C(C)C)OCc2cc(-c3ccc(-c4ccc(Cl)c(Cl)c4)o3)nc(-c3ccc(Oc4ccccc4)cc3)c21", "label": "not fulfilled"}
{"molecule": "Cc1ccc(S(=O)(=O)N2[C@@H](c3ccccc3)C(C(=O)O)=C[C@H]2C(C)(C)C)cc1", "label": "fulfilled"}
{"molecule": "COC(=O)[C@@]1(Cc2ccc(F)cc2)[C@H]2c3cc(C(=O)N4CCCC4)n(CCc4c[nH]c5cc(F)ccc45)c3C[C@H]2CN1C(=O)c1ccccc1", "label": "fulfilled"}
{"molecule": "CCCCN1CC=CC23O[C@@H]4/C=C\\CCC(C)OC(=O)C4[C@H]2C(=O)N(CCO)[C@@H]3C1=O (some centres not stated)", "label": "fulfilled"}
{"molecule": "NCCCCCCNC(=O)[C@@H]1C[C@@H]2C(=O)NCC(=O)N2[C@@H]1c1cccc(OCCO)c1", "label": "fulfilled"}
{"molecule": "O=C1O[C@H](c2ccccc2)[C@H](c2ccccc2)N2[C@H]1[C@@H](C(=O)Nc1nc3ccccc3s1)[C@]1(C(=O)Nc3ccccc31)[C@H]2c1ccccc1OCCO", "label": "fulfilled"}
{"molecule": "CC(C)C[C@H]1NC(=O)CNC(=O)[C@@]23C(=O)N[C@@H](Cc4ccccc4)C2[C@H](C)[C@@]2(C)O[C@H]2C3/C=C/C/C=C\\CNC1=O (some centres not stated)", "label": "not fulfilled"}
{"molecule": "C=C[C@@H](CO)NS(=O)(=O)c1ccc(Br)cc1", "label": "not fulfilled"}
{"molecule": "COC(=O)[C@@]1(Cc2ccc(F)cc2)[C@H]2c3cc(C(=O)N4CCCC4)n(CCSCCO)c3C[C@H]2CN1C(=O)c1ccccc1", "label": "fulfilled"}
{"molecule": "C=CC[C@@]1(C(=O)NCCCOC)N=C(c2ccc(OCCCO)cc2)O[C@@H]1c1ccccc1CN=[N+]=[N-]", "label": "fulfilled"}
{"molecule": "COC(=O)[C@@]1(Cc2ccc(F)cc2)[C@H]2c3cc(C(=O)N4CCCC4)n(C[C@H](O)CO)c3C[C@H]2CN1C(=O)c1ccccc1", "label": "fulfilled"}
